Reference source: PubChem BioAssay (NCI)

Tested on: TK-10 renal
Experiment: NCI-60 one-dose screen, 48 h (100 = growth as untreated, 0 = no growth, -100 = all killed)
Details: 10 µM unless noted
The panel holds about 83,000 compounds, 20% with a hit somewhere; the sample as a whole holds those more often.
Each entry below carries its reported growth.
Answer in %, number only, no unit symbol.

compound=Cc1ccc(C(C)C)cc1NC(=O)Nc1ccc([N+](=O)[O-])cc1 measured_parameter=growth unit_annotation=% reading=16.8
compound=Clc1ccccc1[C@@H]1C[C@@H]2Cc3cc(Br)c4ccccc4c3N1O2 measured_parameter=growth unit_annotation=% reading=63.6
compound="Cc1cc2c(cc1[N+](=O)[O-])NC(CNC(C)C)CC2 (centres undefined)" measured_parameter=growth unit_annotation=% reading=97.1

growth lookup needed for `CCc1[nH]nc(-c2ccc(OC)cc2)c1-c1ccccc1OCCN(CC)CC` , thanks.
109

* * *

Tested on: OVCAR-5 ovarian
Test: NCI-60 one-dose screen, 48 h (100 = growth as untreated, 0 = no growth, -100 = all killed)
Settings: 10 µM unless noted
Compounds without any hit were thinned out: in the full panel of roughly 83,000, 20% have a hit.
Each entry below carries its reported growth.
Answer in %, number only, no unit symbol.

compound=O=C1Nc2ccc(F)cc2/C1=C/c1nc(-c2ccc(F)cc2)n2ccccc12 unit_annotation=% reading=94.7
compound=Oc1[nH]c2ccc(Cl)cc2c1/C=c1/ccc2c(c1)N=C(c1ccc(C(F)(F)F)cc1)N=2 unit_annotation=% reading=76.2

Lookup: growth / OVCAR-5 ovarian / CCCCC(C#N)C(N)=O (centres undefined)
106

Lookup: growth / OVCAR-5 ovarian / C[C@@H]1CC[C@H]2[C@@H](C)C(O)O[C@@H]3O[C@]4(C)CC[C@@H]1[C@]32OO4 (some centres undefined)
26.5

* * *

Tested on: KM12 colon
Assay: NCI-60 one-dose screen, 48 h (100 = growth as untreated, 0 = no growth, -100 = all killed)
Conditions: 10 µM unless noted
About 83,000 compounds went through this panel and 20% of them were active in at least one assay; those are over-represented in the sample as a whole.
Criterion: growth meeting or surpassing 50%. Met: yes (1). Not met: no (0).

molecule=Oc1[nH]c2ccc(Cl)cc2c1/C=c1/ccc2c(c1)N=C(c1ccc(C(F)(F)F)cc1)N=2 label_class="no (0)"
molecule="COc1cc(/C=C2\\CCC/C(=C\\c3ccc(OCC4CO4)c(OC)c3)C2=O)ccc1OCC1CO1 (centres undefined)" label_class="no (0)"
molecule="CO[C@H]1CC(O[C@@H]2/C(C)=C/C[C@@H]3C[C@@H](C[C@]4(CC[C@H](C)[C@@H](C5CCCCC5)O4)O3)OC(=O)[C@@H]3C=C(C)/C(=N/O)[C@H]4OC/C(=C\\C=C\\[C@@H]2C)[C@]43O)O[C@@H](C)C1O (some centres undefined)" label_class="no (0)"
molecule=Clc1ccc(-n2cnc3c(Cl)ncnc32)cc1Cl label_class="yes (1)"

Could you please find out whether `COc1cc(/C=C/C(=O)Nc2cccnc2Nc2cc(OC)c(OC)c(OC)c2)cc(OC)c1OC` has growth that meets 50% or exceeds it?
yes (1)

Could you please find out whether `Cc1ccc2c(c1)C(=O)/C(=C/c1ncc([N+](=O)[O-])n1C)O2` has growth that meets 50% or exceeds it?
no (0)

Could you please find out whether `c1ccc(-c2nnc(Nc3nnc(-c4ccccc4)s3)s2)cc1` has growth that meets 50% or exceeds it?
yes (1)

Could you please find out whether `COc1ccc(-c2noc(N)c2-c2cc(OC)c3c(c2)OCO3)cc1` has growth that meets 50% or exceeds it?
no (0)

Could you please find out whether CO[C@H]1/C=C/O[C@@]2(C)Oc3c(C)c(O)c4c(O)c(c(/C=N/N5CCN(C)CC5)c(O)c4c3C2=O)NC(=O)/C(C)=C\C=C\C(C)[C@H](O)[C@@H](C)[C@@H](O)[C@@H](C)[C@@H](OC(C)=O)[C@@H]1C (some centres undefined) has growth that meets 50% or exceeds it?
yes (1)
